# experimental_system: AKR1C4 (Homo sapiens)
# Sequence (P17516 whole entry): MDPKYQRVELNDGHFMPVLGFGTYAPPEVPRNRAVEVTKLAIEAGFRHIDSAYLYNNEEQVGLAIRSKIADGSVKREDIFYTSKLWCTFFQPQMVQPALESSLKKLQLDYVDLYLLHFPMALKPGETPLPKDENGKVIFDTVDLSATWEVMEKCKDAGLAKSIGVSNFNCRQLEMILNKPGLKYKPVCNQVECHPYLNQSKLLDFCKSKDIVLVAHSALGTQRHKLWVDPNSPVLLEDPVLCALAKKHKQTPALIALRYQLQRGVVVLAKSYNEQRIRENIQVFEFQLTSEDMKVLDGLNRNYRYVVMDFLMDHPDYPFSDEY
# test_name: biochemical
# experimental_conditions: AKR1C4 IC50, Table 1; mean ±SEM of n = 3 experiments
value_kind: pIC50
Give bare numbers, as −log10 of the molar value.

Quick note, pIC50 for CCOC(=O)c1cc2ccc(O)cc2oc1=O [Compound 1f] landed at 6.22

----------
# experimental_system: UniProt:P42330
# Sequence (P42330 whole entry): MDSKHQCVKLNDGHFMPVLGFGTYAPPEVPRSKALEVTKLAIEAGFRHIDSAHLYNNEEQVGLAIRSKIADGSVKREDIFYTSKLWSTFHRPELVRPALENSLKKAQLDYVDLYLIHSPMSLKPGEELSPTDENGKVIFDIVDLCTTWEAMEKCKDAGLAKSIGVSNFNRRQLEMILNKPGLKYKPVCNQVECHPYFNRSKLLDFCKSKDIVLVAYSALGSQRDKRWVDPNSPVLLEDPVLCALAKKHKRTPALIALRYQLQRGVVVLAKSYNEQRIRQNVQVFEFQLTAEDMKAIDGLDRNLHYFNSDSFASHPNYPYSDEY
# test_name: biochemical
value_kind: IC50 (µM)
One number for each entry, in µM.

molecule CCOC(=O)c1cc2ccccc2oc1=O [Compound 1a, Ethyl 2-oxo-2H-chromene-3-carboxylate] , IC50 observed: 6.4
